Quick reference: growth of the listed items.
test system: EKVX NSCLC; experiment: NCI-60 one-dose screen, 48 h (100 = growth as untreated, 0 = no growth, -100 = all killed); conditions: 10 µM
This is part of a sample that, as a whole, favours compounds with a hit. Of some 83,000 tested, about 20% had one in any assay.
Lab book: enter the figure in %, no units written.

Below, each entry is followed by its recorded growth result.
- O=c1[nH]c2ccccc2cc1CSc1ccc(Nc2nccc(-c3ccc4c(c3)OCO4)n2)cc1: 94.2
- COc1ccc(C(=O)/C=C/c2cc(C(F)(F)F)cc(C(F)(F)F)c2)cc1S(N)(=O)=O: -93
- Cc1ccc(-c2cc(C(=O)N=Nc3c(O)[nH]c4ccccc34)c3ccccc3n2)cc1: 38.4
- CCOc1ccc(/C=N/NC(=O)Cn2nc(Cc3ccccc3)c3onc(C)c3c2=O)cc1: 23.9

// moving on: another record for growth
Query string: Indicate the recorded growth value for this molecule: O=C(Cn1cc(CSc2nnc3oc4ccccc4n23)nn1)Nc1cccc(Cl)c1
Result string: 57.6

Where do the numbers come from? From PubChem BioAssay (NCI).
